System: Enterococcus faecalis
assay-text: Antibacterial activity against vancomycin-sensitive Enterococcus faecalis ATCC 19433 by CLSI broth microdilution method
Format: functional
property: MIC (µg/mL)
Return type: number; implicit unit µg/mL.

For this compound ( CN(C)[C@@H]1C(O)=C(C(N)=O)C(=O)[C@@]2(O)C(O)=C3C(=O)c4c(O)cccc4[C@@](C)(O)[C@H]3C[C@@H]12 [TETRACYCLINE] ), measured MIC is 0.5

For this compound ( COc1cc2cc3c4cc(-c5ccc(C(C)(C)C)cc5)c(OC)c(OC)c4cc[n+]3cc2cc1OC.[Cl-] ), measured MIC is 4

For this compound ( CC(=O)OS(=O)(=O)[O-].COc1cc2cc[n+]3c(C)c4cc(OC)c(OC)c(-c5ccc(-c6ccccc6)cc5)c4cc3c2cc1OC ), measured MIC is 4

For this compound ( COc1cc2cc3c4cc(-c5cccc6ccccc56)c(OC)c(OC)c4cc[n+]3cc2cc1OC.[Cl-] ), measured MIC is 8

For this compound ( CC(=O)OS(=O)(=O)[O-].COc1cc2cc3c4cc(-c5ccc(C)cc5)c(OC)cc4cc[n+]3c(C)c2cc1OC ), measured MIC is 8

For this compound ( CC(=O)OS(=O)(=O)[O-].COc1cc2cc3c4cc(-c5ccc(-c6ccccc6)cc5)c(OC)c(OC)c4cc[n+]3c(C)c2cc1OC ), measured MIC is 4

For this compound ( CC(=O)OS(=O)(=O)[O-].COc1cc2cc3c4cc(-c5ccccc5)c(OC)c(OC)c4cc[n+]3c(C)c2cc1OC ), measured MIC is 8

For this compound ( CC(=O)OS(=O)(=O)[O-].COc1cc2cc3c4cc(-c5ccc(C(C)(C)C)cc5)c(OC)c(OC)c4cc[n+]3c(C)c2cc1OC ), measured MIC is 4

For this compound ( COc1cc2cc3c4cc(-c5ccc(C)cc5)c(OC)cc4cc[n+]3cc2cc1OC.[Cl-] ), measured MIC is 16

For this compound ( COc1cc2cc[n+]3cc4cc(OC)c(OC)c(-c5ccc(-c6ccccc6)cc5)c4cc3c2cc1OC.[Cl-] ), measured MIC is 8

For this compound ( CC(=O)OS(=O)(=O)[O-].COc1cc2cc3c4cc(-c5cccc6ccccc56)c(OC)c(OC)c4cc[n+]3c(C)c2cc1OC ), measured MIC is 4

For this compound ( CC[C@H]1OC(=O)[C@H](C)[C@@H](O[C@H]2C[C@@](C)(OC)[C@@H](O)[C@H](C)O2)[C@H](C)[C@@H](O[C@@H]2O[C@H](C)C[C@H](N(C)C)[C@H]2O)[C@](C)(O)C[C@@H](C)C(=O)[C@H](C)[C@@H](O)[C@]1(C)O [ERYTHROMYCIN] ), measured MIC is 1

For this compound ( COc1cc2cc3c4cc(-c5ccccc5)c(OC)c(OC)c4cc[n+]3cc2cc1OC.[Cl-] ), measured MIC is 16

For this compound ( Cc1onc(-c2ccccc2)c1C(=O)N[C@@H]1C(=O)N2[C@@H]1SC(C)(C)[C@@H]2C(=O)O [OXACILLIN] ), measured MIC is 8
